assayNotes: total protein half-life in vivo (active degradation + dilution); higher = more stable protein
conditionNotes: wild type E. coli NCM3722; growth: C-lim chemostat; doubling time 6 h
Listed here are sequences together with their documented total protein half-life in vivo.
measuredAttribute: total protein half-life in vivo (h)

{"columns": ["recordSequence", "observedMeasurement"],
 "data": [
  ["MAIRLYKLAVALGVFIVSAPAFSHGHHSHGKPLTEVEQKAANGVFDDANVQNRTLSDWDGVWQSVYPLLQSGKLDPVFQKKADADKTKTFAEIKDYYHKGYATDIEMIGIEDGIVEFHRNNETTSCKYDYDGYKILTYKSGKKGVRYLFECKDPESKAPKYIQFSDHIIAPRKSSHFHIFMGNDSQQSLLNEMENWPTYYPYQLSSEEVVEEMMSH", 6.23],
  ["MKTALLLEKLEGQLATLRQRCAPVSQFATLSARFDRHLFQTRATTLQACLDEAGDNLAALRHAVEQQQLPQVAWLAEHLAAQLEAIAREASAWSLREWDSAPPKIARWQRKRIQHQDFERRLREMVAERRARLARVTDLVEQQTLHREVEAYEARLARCRHALEKIENRLARLTR", 3.69]
]}
